pIC50 values, listed per item
- System: HCoV-OC43
- Assay Overview: CPE inhibition assay, HCoV-OC43-infected H460 cells
- Type: cell-based
- Assay Conditions: Betacoronavirus 1, NCI-H460; HCoV-OC43 (100 TCID50) in H460 cells, CPE, about 72 h, Reed-Muench
pIC50: −log10 of the molar value.
Observation Type: pIC50

| Compound | Observation Type | Recorded Result |
| --- | --- | --- |
| NC(=O)c1ncn([C@@H]2O[C@H](CO)[C@@H](O)[C@H]2O)n1 [RBV, Ribavirin] | pIC50 | 4.68 |
| CCN(CC)CCCC(C)Nc1ccnc2cc(Cl)ccc12 (centres unmarked) [CQ, Chloroquine phosphate] | pIC50 | 5.50 |

###

- Assay Overview: in vitro
- Assay Conditions: human, Huh7 cells

| Compound String | CC50 at 2 days [µM] |
| --- | --- |
| NC(=O)c1ncn([C@@H]2O[C@H](CO)[C@@H](O)[C@H]2O)n1 | 409 |
